Source: patent EP3061750A1

biological target: succinate dehydrogenase (Sus scrofa, UniProt A5GZW8+D0VWV4+Q007T0); construct: succinate dehydrogenase, which was isolated from pig hearts; from tissue; host or cells: pig heart; assay: inhibitory activity on succinate dehydrogenase (DCIP reduction at 600 nm); type: biochemical, pig
Sequence (Q007T0 29-280): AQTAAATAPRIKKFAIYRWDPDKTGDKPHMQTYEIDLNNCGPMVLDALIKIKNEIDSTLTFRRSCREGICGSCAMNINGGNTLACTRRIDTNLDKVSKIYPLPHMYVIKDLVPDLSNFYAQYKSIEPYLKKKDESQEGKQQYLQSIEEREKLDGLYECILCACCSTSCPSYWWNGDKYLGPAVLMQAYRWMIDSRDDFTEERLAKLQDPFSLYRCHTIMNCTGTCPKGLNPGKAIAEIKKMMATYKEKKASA
Sequence (D0VWV4 30-169): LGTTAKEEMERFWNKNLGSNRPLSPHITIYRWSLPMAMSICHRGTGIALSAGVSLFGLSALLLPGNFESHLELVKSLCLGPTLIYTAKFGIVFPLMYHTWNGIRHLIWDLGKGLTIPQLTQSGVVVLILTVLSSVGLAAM
Sequence (A5GZW8 57-159 limits assumed): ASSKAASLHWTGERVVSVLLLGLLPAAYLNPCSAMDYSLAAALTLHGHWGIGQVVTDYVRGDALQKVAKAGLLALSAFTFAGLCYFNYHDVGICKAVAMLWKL
Sequence (Q0QF01 43-664 partner): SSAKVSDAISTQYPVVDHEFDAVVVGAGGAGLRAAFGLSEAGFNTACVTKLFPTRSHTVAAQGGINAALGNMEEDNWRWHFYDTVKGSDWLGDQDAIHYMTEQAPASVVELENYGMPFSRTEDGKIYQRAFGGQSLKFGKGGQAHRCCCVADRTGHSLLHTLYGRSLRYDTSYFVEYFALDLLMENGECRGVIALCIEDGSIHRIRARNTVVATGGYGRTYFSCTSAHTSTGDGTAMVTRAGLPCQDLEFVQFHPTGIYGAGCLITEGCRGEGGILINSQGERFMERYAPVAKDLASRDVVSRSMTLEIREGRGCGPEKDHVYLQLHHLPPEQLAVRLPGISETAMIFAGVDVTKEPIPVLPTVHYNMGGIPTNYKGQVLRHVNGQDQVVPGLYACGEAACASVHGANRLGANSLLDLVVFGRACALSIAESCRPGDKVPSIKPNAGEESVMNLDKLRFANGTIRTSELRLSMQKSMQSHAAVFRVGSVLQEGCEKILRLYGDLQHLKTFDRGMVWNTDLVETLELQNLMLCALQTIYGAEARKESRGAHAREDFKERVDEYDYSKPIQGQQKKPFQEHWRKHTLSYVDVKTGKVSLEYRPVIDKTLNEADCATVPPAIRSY
Field 'label' (enum: yes (1) / no (0)). Set to yes (1) when IC50 is strictly under 2 µM; else no (0).

See these solved cases before continuing.
# input Dear colleague, could you confirm whether IC50 of Cn1cc(C(=O)Nc2ccccc2Oc2ccc(C(F)(F)F)cc2Cl)c(C(F)F)n1 falls below 2 µM? Thanks.
# output yes (1)

# input Request: COc1cc(Oc2ccccc2NC(=O)c2cn(C)nc2C(F)F)cc(OC)c1OC
# output no (0)

# input Request: Cn1cc(C(=O)Nc2ccccc2Oc2ccc(Cl)cc2Cl)c(C(F)F)n1
# output yes (1)

# input Request: Cn1cc(C(=O)Nc2ccccc2Oc2ccc(C#N)cc2)c(C(F)F)n1
# output no (0)

# input Request: Cn1cc(C(=O)Nc2ccccc2Oc2ccc(C(F)(F)F)cc2)c(C(F)F)n1
# output yes (1)

# input Request: COc1cc(Oc2ccccc2NC(=O)c2cn(C)nc2C(F)(F)F)cc(OC)c1OC
# output no (0)

---
# input Dear colleague, could you confirm whether IC50 of Cn1cc(C(=O)Nc2ccccc2Oc2ccccc2)c(C(F)(F)F)n1 [Comparative compound 12, reference compound] falls below 2 µM? Thanks.
# output no (0)

# input Request: Cn1cc(C(=O)Nc2ccccc2Oc2ccc(F)cc2)c(C(F)(F)F)n1
# output no (0)

----------
molecular target: succinate dehydrogenase (Sus scrofa, UniProt A5GZW8+D0VWV4+Q007T0); construct: succinate dehydrogenase, which was isolated from pig hearts; from tissue; host or cells: pig heart; test: inhibitory activity on succinate dehydrogenase (DCIP reduction at 600 nm); assay type: biochemical, pig
ENDPOINT: log10 IC50 (log10 of the value in µM)
Remember, log10 of IC50, in µM.

Some compounds with known log10 IC50 results, for comparison:
# input Requested field: log10 IC50. Item: Cn1cc(C(=O)Nc2ccccc2Oc2ccc(C(F)(F)F)cc2)c(C(F)(F)F)n1 [III-11]
# output 0.50

# input Request: Cc1cccc(Oc2ccccc2NC(=O)c2cn(C)nc2C(F)(F)F)c1C [III-13]
# output 0.99

# input Request: Cc1cc(C)cc(Oc2ccccc2NC(=O)c2cn(C)nc2C(F)F)c1 [III-16]
# output 0.31

# input Request: Cn1cc(C(=O)Nc2ccccc2Oc2ccc(C(C)(C)C)cc2)c(C(F)F)n1 [Comparative compound 21, reference compound]
# output 0.07

---
# input Requested field: log10 IC50. Item: Cn1cc(C(=O)Nc2ccccc2Oc2cccc(Cl)c2)c(C(F)(F)F)n1 [III-1]
# output 1.57

# input Request: Cn1cc(C(=O)Nc2ccccc2Oc2ccc(Cl)cc2)c(C(F)F)n1 [III-10]
# output 0.31

# input Request: Cc1cccc(Oc2ccccc2NC(=O)c2cn(C)nc2C(F)F)c1C [III-14]
# output 0.51

# input Request: Cn1cc(C(=O)Nc2ccccc2Oc2ccc(Cl)cc2Cl)c(C(F)(F)F)n1 [III-2]
# output 0.43

# input Request: Cc1cc(C)cc(Oc2ccccc2NC(=O)c2cn(C)nc2C(F)(F)F)c1 [III-15]
# output 0.71

----------
molecular target: succinate dehydrogenase (Sus scrofa, UniProt A5GZW8+D0VWV4+Q007T0); construct: succinate dehydrogenase, which was isolated from pig hearts; from tissue; host or cells: pig heart; test: inhibitory activity on succinate dehydrogenase (DCIP reduction at 600 nm); type: biochemical, pig; details: succinate dehydrogenase isolated from pig hearts, pH7.4, 23 °C; read-out: IC50
ENDPOINT: pIC50
Friendly reminder that pIC50 comes from taking -log10 of the concentration in mol/L.

# input Requested field: pIC50. Item: Cc1nc(C(F)(F)F)c(C(=O)Nc2c(Br)cc(OC(F)(F)F)cc2Br)s1 [Thifluzamide, reference compound]
# output 6.70

----------
Molecular target: succinate dehydrogenase (Sus scrofa, UniProt A5GZW8+D0VWV4+Q007T0)
Construct: succinate dehydrogenase, which was isolated from pig hearts; from tissue; host or cells: pig heart
Test: inhibitory activity on succinate dehydrogenase (DCIP reduction at 600 nm)
Type: biochemical, pig
Conditions: cells printed as "-" (footnote)
Method: This test was used to determine the inhibitory activity on the succinate dehydrogenase of the compounds prepared in Example 1, Preparation Examples 1 and 2 . The enzyme used in the test example was succinate dehydrogenase, which was isolated from pig hearts. Test Method: total volume was 1.8ml, the system comprised 100mM Na2HPO4-NaH2PO4 buffer (pH7.4), 0.3mM EDTA, 20mM sodium succinate, 53µM DCIP (2,6-dichloro indophenol sodium), 2nM succinate dehydrogenase. […]
pIC50: −log10 of the molar value.
ENDPOINT: pIC50

# input Requested field: pIC50. Item: Cn1cc(C(=O)Nc2ccccc2Oc2ccc(C#N)cc2)c(C(F)(F)F)n1 [III-6]
# output < 4.00

----------
target: succinate dehydrogenase (Sus scrofa, UniProt A5GZW8+D0VWV4+Q007T0); construct: succinate dehydrogenase, which was isolated from pig hearts; from tissue; host or cells: pig heart; assay: inhibitory activity on succinate dehydrogenase (DCIP reduction at 600 nm); assay type: biochemical, pig; details: succinate dehydrogenase isolated from pig hearts, pH7.4, 23 °C
ENDPOINT: IC50 (µM)
Supply the numeric figure in µM, leaving out any unit text.

# input Requested field: IC50. Item: Cn1cc(C(=O)Nc2ccccc2Oc2ccc(Cl)cc2)c(C(F)(F)F)n1
# output 4.9
